# experimental_target: UniProt:Q9NRJ3
# Sequence (Q9NRJ3 20-127): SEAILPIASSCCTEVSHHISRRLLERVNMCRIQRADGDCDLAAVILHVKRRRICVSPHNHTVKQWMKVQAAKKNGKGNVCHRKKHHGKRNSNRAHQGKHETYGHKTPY
# assay_remarks: Chemokine glycan microarray binding assay
# measurement_conditions: maximum RFU set as 100% binding, average across 2 glycan concentrations and 3 chemokine dilutions (n=6)
API: label(entry) gives YES if the entry's mean rank binding to CCL28 is strictly smaller than 70%; on equality or larger values it gives NO.

**Q:** In plain terms, does CC(=O)N[C@H]1[C@@H](O[C@H]2[C@H](O)[C@@H](OP(=O)(O)O)[C@H](OCCCN)O[C@H]2C(=O)O)O[C@H](COP(=O)(O)O)[C@@H](O[C@@H]2O[C@@H](C(=O)O)[C@@H](O[C@H]3O[C@H](COP(=O)(O)O)[C@@H](O)[C@H](O)[C@H]3NC(C)=O)[C@H](O)[C@H]2OP(=O)(O)O)[C@@H]1O come in under 70% for mean rank binding to CCL28?
**A:** NO

**Q:** I wonder whether NCCOCCO[C@@H]1OC(C(=O)O)[C@@H](O[C@@H]2OC(C(=O)O)[C@@H](O[C@@H]3OC(C(=O)O)[C@@H](O)C(O)C3O)C(O)C2O)C(O)C1O (stereo partly shown) has mean rank binding to CCL28 below 70%. Can you tell?
**A:** NO

**Q:** I wonder whether NCCOCCO[C@@H]1O[C@@H](C(=O)O)[C@@H](O[C@@H]2O[C@@H](C(=O)O)[C@@H](O[C@@H]3O[C@@H](C(=O)O)[C@@H](O[C@@H]4O[C@@H](C(=O)O)[C@@H](OS(=O)(=O)O)[C@H](O)[C@H]4O)[C@H](O)[C@H]3O)[C@H](O)[C@H]2O)[C@H](O)[C@H]1O has mean rank binding to CCL28 below 70%. Can you tell?
**A:** NO

**Q:** A record lists NCCOCCO[C@@H]1O[C@@H](C(=O)O)[C@@H](O[C@@H]2O[C@@H](C(=O)O)[C@@H](O[C@@H]3O[C@@H](C(=O)O)[C@@H](OS(=O)(=O)O)[C@H](O)[C@H]3OS(=O)(=O)O)[C@H](O)[C@H]2OS(=O)(=O)O)[C@H](O)[C@H]1OS(=O)(=O)O . Is its mean rank binding to CCL28 below 70%?
**A:** YES

**Q:** Does the reported mean rank binding to CCL28 of CC(=O)NC1C(O)[C@H](O)C(COS(=O)(=O)O)O[C@@H]1O[C@@H]1C(C(=O)O)O[C@@H](O[C@@H]2C(COS(=O)(=O)O)O[C@H](O[C@@H]3C(C(=O)O)O[C@@H](OCCCN)C(O)C3O)C(NC(C)=O)C2O)C(O)C1O (stereo partly shown) stay below 70%?
**A:** NO

**Q:** Dear colleague, could you confirm whether mean rank binding to CCL28 of CC(=O)N[C@H]1[C@@H](O[C@H]2[C@H](O)[C@@H](O)[C@H](OCCCN)O[C@H]2C(=O)O)O[C@H](COP(=O)(O)O)[C@@H](O[C@@H]2O[C@@H](C(=O)O)[C@@H](O[C@H]3O[C@H](COP(=O)(O)O)[C@@H](O)[C@H](O)[C@H]3NC(C)=O)[C@H](O)[C@H]2O)[C@@H]1O falls below 70%? Thanks.
**A:** YES

**Q:** Does CC(=O)NC1C(O)[C@H](O)C(CO)O[C@@H]1O[C@@H]1C(C(=O)O)O[C@@H](O[C@@H]2C(CO)O[C@H](O[C@@H]3C(C(=O)O)O[C@@H](OCCCN)C(OS(=O)(=O)O)C3O)C(NC(C)=O)C2O)C(OS(=O)(=O)O)C1O (stereo partly shown) have mean rank binding to CCL28 strictly under 70%?
**A:** YES

**Q:** Input NCCOCCO[C@@H]1OC(C(=O)O)[C@@H](O[C@@H]2OC(C(=O)O)[C@@H](O[C@@H]3OC(C(=O)O)[C@@H](O[C@@H]4OC(C(=O)O)[C@@H](O)C(O)C4O)C(O)C3O)C(O)C2O)C(O)C1O (stereo partly shown) ; condition: mean rank binding to CCL28 strictly below 70%. Does it hold?
**A:** NO

**Q:** Could you please tell me whether mean rank binding to CCL28 recorded for NCCCO[C@@H]1O[C@@H](C(=O)O)[C@@H](O[C@H]2O[C@H](COS(=O)(=O)O)[C@@H](O[C@@H]3O[C@@H](C(=O)O)[C@@H](O[C@H]4O[C@H](COS(=O)(=O)O)[C@@H](O)[C@H](OS(=O)(=O)O)[C@H]4N)[C@H](O)[C@H]3O)[C@H](OS(=O)(=O)O)[C@H]2N)[C@H](O)[C@H]1O is less than 70%?
**A:** YES

Hello, the source for this data is patent US20260207654A1, in case you need it.
